assay: Drug repurposing screens with cells derived from glioblastoma tumor samples (AID 1345199); settings: GBM patient neurospheres viability, ATP luminescence, 48 h; at 45.9 µM (top of the series); tumour line D; further: on the % scale 0 is the no-effect control and ±100 the full control effect; nearly all actives have a fitted effect of over 40% in size
Inconclusive results are not listed.
Parameter: activity, negative = cell killing (%)
Reply numerically in %, unit not repeated.

Worked examples, 6 compounds total:
CCCCN1CCCC1C(=O)Nc1c(C)cc(C)cc1C (configuration not stated) | -4.43
O=C1OCCN1/N=C/c1ccc([N+](=O)[O-])o1 | -7.13
Cc1ccc(Nc2c(F)cccc2Cl)c(CC(=O)O)c1 | -3.08
Nc1nc2ncc(CNc3ccc(C(=O)N[C@@H](CCC(=O)O)C(=O)O)cc3)nc2c(=O)[nH]1 | 4.54
CC(=O)Oc1ccc(C(c2ccc(OC(C)=O)cc2)c2ccccn2)cc1 | -3.54
CC(O)C(=O)O (configuration not stated) | -11.1

Input line: Which activity, negative = cell killing is reported for this compound? `O=C(N/N=C/c1ccccc1O)c1ccncc1`
Output line: 0.44

Input line: Another: `Nc1ccc(C(=O)O)cc1`
Output line: -1.8

Input line: What do you have for `CC(=O)O[C@H]1C[C@@H]2CC[C@@H]3[C@H](CC[C@@]4(C)[C@H]3C[C@H]([N+]3(C)CCCCC3)[C@@H]4OC(C)=O)[C@@]2(C)C[C@@H]1[N+]1(C)CCCCC1` ?
Output line: -21.6

Input line: Same again, this time with `CC(C)COC(=O)OCN1C(=O)CN(CCN2CC(=O)N(COC(=O)OCC(C)C)C(=O)C2)CC1=O`
Output line: -16.2

###

test system: PA-1; test: Primary qHTS to identify gynecologic anti-cancer compounds using libraries of approved drugs and bioactive compounds (AID 1345084); settings: Gynecologic cancer cell panel viability, ATPlite luminescence, 48 h; series mostly up to 57.5 µM; further: nearly all actives have a fitted effect of over 55% in size
Inconclusive results are not listed. The source made the active and inactive calls. Calls follow the shape of the dose curve; as a rule, active = well fitted cell-killing curve with a large enough effect; inconclusive = small, poorly fitted or top-dose-only effect, or effect the other way; inactive = flat fitted curve, though single readings scatter.
Mark one answer only. Choices: Y = active, N = inactive

Consider the worked cases shown below.
O=C1OC2(c3ccc(O)cc3Oc3cc(O)ccc32)c2ccccc21 | N
NC(=O)CC[C@@H]1NC(=O)[C@H](Cc2ccccc2)NC(=O)[C@H](Cc2ccc(O)cc2)NC(=O)CCSSC[C@@H](C(=O)N2CCC[C@H]2C(=O)N[C@@H](CCCN=C(N)N)C(=O)NCC(N)=O)NC(=O)[C@H](CC(N)=O)NC1=O | N
CC(=O)OCC(=O)[C@@]12OC(C)(C)O[C@@H]1C[C@H]1[C@@H]3C[C@H](F)C4=CC(=O)C=C[C@]4(C)[C@@]3(F)[C@@H](O)C[C@@]12C | N
Nc1ccc(C(=O)Nc2ccccc2N)cc1 | Y
CCCCCCCCCCCCCCCC[N+](C)(C)CCN(Cc1ccc(OC)cc1)c1ncccn1 | Y

Turning to the following compound.
Input line: Please state the recorded outcome for this compound: CCOc1ccc(NC(=O)CC(C)O)cc1 (centres undefined)
Output line: N

###

tested on: MKL-2; experiment: qHTS assay to identify novel small-molecules to repurpose for Merkel cell carcinoma treatment (AID 1296009); settings: MCC and control cell lines, CellTiter-Glo viability, 72 h; series mostly up to 46 µM; further: nearly all actives have a fitted effect of over 60% in size
Inconclusive results are not listed. Active and inactive are the calls of the source. Calls follow the shape of the dose curve; as a rule, active = well fitted inhibition curve with a large enough effect; inconclusive = small, poorly fitted or top-dose-only effect; inactive = flat fitted curve, though single readings scatter.
Can you answer with just one of these options? active, inactive

Completed entries (count: 4):
N[C@@H](CCC(=O)N[C@@H](CS)C(=O)NCC(=O)O)C(=O)O | inactive
NC(CS)C(=O)O (stereo unspecified) | inactive
Oc1c(I)cc(I)c2cccnc12 | active
CC(=O)N/N=C/c1ccc([N+](=O)[O-])o1 | active

Input line: Check the results log: what was the call for `COc1ccc(C2C(=O)c3ccccc3C2=O)cc1` ?
Output line: inactive

Input line: One more molecule: `CC1(C)O[C@@H]2C[C@H]3[C@@H]4C[C@H](F)C5=CC(=O)CC[C@]5(C)[C@H]4[C@@H](O)C[C@]3(C)[C@]2(C(=O)CO)O1`
Output line: inactive

###

system: C33A; assay: Primary qHTS to identify gynecologic anti-cancer compounds using libraries of approved drugs and bioactive compounds (AID 1345084); settings: Gynecologic cancer cell panel viability, ATPlite luminescence, 48 h; series mostly up to 57.5 µM; further: nearly all actives have a fitted effect of over 55% in size
Inconclusive results are not listed. Calls of active or inactive are those of the source. Calls follow the shape of the dose curve; as a rule, active = well fitted cell-killing curve with a large enough effect; inconclusive = small, poorly fitted or top-dose-only effect, or effect the other way; inactive = flat fitted curve, though single readings scatter.
Field 'call' accepts Yes (active), No (inactive)

Field: example entries. Status: answers known.
CCCCC1=NC2(CCCC2)C(=O)N1Cc1ccc(-c2ccccc2-c2nn[nH]n2)cc1 | No
C[C@]12C=CC(=O)C=C1[C@@H](F)C[C@@H]1[C@@H]2[C@@H](O)C[C@@]2(C)[C@H]1CC[C@]2(O)C(=O)CO | No
CN(C(=O)CN(CCO)CC(=O)N(C)C(C)(C)Cc1ccccc1)C(C)(C)Cc1ccccc1 | No
CN1CCN(CCCN2c3ccccc3Sc3ccc(S(=O)(=O)N(C)C)cc32)CC1 | No
CCN(CC)C(=O)/C(C#N)=C/c1cc(O)c(O)c([N+](=O)[O-])c1 | No
CC/C(=C(/CC)c1ccc(O)cc1)c1ccc(O)cc1 | No
OC[C@H]1O[C@@H](n2cnc3c(=S)nc[nH]c32)[C@H](O)[C@@H]1O | Yes
C[C@]12CC[C@H]3[C@@H](CCC4=CC(=O)CC[C@@]43C)[C@@H]1CC[C@@H]2C(=O)CO | No
CCOc1ccc(NC(=O)CC(C)O)cc1 (configuration not stated) | No
NCCC(O)(P(=O)(O)O)P(=O)(O)O | No

Input line: For `CC(=O)O[C@]1(C(C)=O)CC[C@H]2[C@@H]3C[C@H](C)C4=CC(=O)CC[C@]4(C)[C@H]3CC[C@@]21C` , what call appears in the results of this test?
Output line: No

Input line: Another molecule: `CCN(CCCc1ccccc1)CCCc1ccccc1`
Output line: No

Input line: `COc1cc(C(=S)N2CCOCC2)cc(OC)c1OC` ?
Output line: No

Input line: Check `CC(C)(Oc1ccc(Cl)cc1)C(=O)O` too.
Output line: No

Input line: `C=CCc1ccc(O)c(OC)c1` ?
Output line: No

Input line: Now try `CN(C)CCOc1ccccc1Cc1ccccc1` .
Output line: No

Input line: Queued: `CC(=O)OCC(=O)NCCCOc1cccc(CN2CCCCC2)c1`
Output line: No

Input line: Check `CC(=O)OCC(=O)[C@@]12N=C(C)O[C@@H]1C[C@H]1[C@@H]3CCC4=CC(=O)C=C[C@]4(C)[C@H]3[C@@H](O)C[C@@]12C` too.
Output line: No

###

test: qHTS assay for small molecule agonists of the antioxidant response element (ARE) signaling pathway measured by Nrf2-dependant transcriptional activity - cell viability counter screen (AID 720653); conditions: ARE-bla HepG2 viability, CellTiter-Glo ATP luminescence, 16 h; stronger effect = lower value; further: on the % scale 0 is the no-effect control and ±100 the full control effect
Inconclusive results are not listed.
Parameter: max response (%)
Field format: number, assumed %, no unit text.

Illustrative cases are given below, each with its answer.
O=C(O)CCCCC(=O)O | 6.35
Oc1ccc(O)cc1 | -23.3

Input line: Recorded max response of `C[C@]12CC[C@@H]3c4ccc(O)cc4CC[C@H]3[C@@H]1CC[C@@H]2O` , please.
Output line: -2.14

Input line: Could you do the same for `CN(C)/N=N/c1nc[nH]c1C(N)=O` , please?
Output line: -9.97

Input line: Same read-out for `CN(C)C(=S)SC(=S)N(C)C` ?
Output line: 4.33

###

system: ECU; assay: qHTS profiling for inhibitors of Plasmodium falciparum proliferation (AID 504749); further: nearly all actives have a fitted effect of over 60% in size; details: P. falciparum in erythrocytes, SYBR Green DNA, 72 h; series mostly up to 28.7 µM
Inconclusive results are not listed. Calls of active or inactive are those of the source. The call rests on the fitted dose curve; in most records, active means well fitted inhibition curve with a large enough effect; inconclusive means small, poorly fitted or top-dose-only effect; inactive means flat fitted curve, though single readings scatter.
Use one of these outcomes when replying: active, inactive

CCCCCCCCCCCCCCCCCC(=O)OCC(O)CO (stereo unspecified) | inactive
Cc1c(C(C)C)c(=O)n(-c2ccccc2)n1C | inactive
C[C@]12CC[C@@H]3c4ccc(O)cc4CC[C@H]3[C@@H]1CC[C@@H]2O | inactive
CN1C(CCl)Nc2cc(Cl)c(S(N)(=O)=O)cc2S1(=O)=O (stereo unspecified) | inactive
COc1cccc(CCc2ccccc2OCC(CN(C)C)OC(=O)CCC(=O)O)c1 (stereo unspecified) | active
CN1CCC[C@@H]1c1cccnc1 | inactive

# evaluate next
Input line: Tell me the recorded outcome of this test for `NC(CO)(CO)CO` .
Output line: inactive

###

assay: qHTS of pediatric cancer cell lines to identify multiple opportunities for drug repurposing: Primary screen for TC32 cells (AID 1347089); conditions: TC32 Ewing sarcoma viability, CellTiter-Glo luminescence, 48 h; series mostly up to 45.8 µM; further: nearly all actives have a fitted effect of over 60% in size
Results filed as inconclusive are left out. Activity calls are given as the source filed them. Calls follow the shape of the dose curve; as a rule, active = well fitted cell-killing curve with a large enough effect; inconclusive = small, poorly fitted or top-dose-only effect; inactive = flat fitted curve, though single readings scatter.
Write down one outcome, taken from active, inactive

Example entries begin here.
CCOC(=O)/C=C(C)/C=C/C=C(C)/C=C/c1c(C)cc(OC)c(C)c1C | inactive
Cc1nc2n(c(=O)c1CCN1CCC(c3noc4cc(F)ccc34)CC1)CCC[C@H]2O | inactive
C[C@]12C=CC(=O)C=C1[C@@H](F)C[C@@H]1[C@@H]2[C@@H](O)C[C@@]2(C)[C@H]1CC[C@]2(O)C(=O)CO | inactive
NCCCC[C@H](N[C@@H](CCc1ccccc1)C(=O)O)C(=O)N1CCC[C@H]1C(=O)O | inactive
COc1cc2c(cc1OC)C(=O)C(CC1CCN(Cc3ccccc3)CC1)C2 (stereo unspecified) | inactive

Input line: Assay result, entry `O=c1[nH]c(=O)n([C@H]2C[C@H](O)[C@@H](CO)O2)cc1C(F)(F)F` — outcome?
Output line: active

Input line: One more molecule: `CCC(=O)c1c(O)cc(O)cc1O`
Output line: inactive

Input line: Lookup `CCCCOc1ccc(C(=O)CCN2CCCCC2)cc1`
Output line: inactive

Input line: Follow-up item: `C#C[C@]1(O)CC[C@H]2[C@@H]3CCC4=CC(=O)CC[C@@H]4[C@H]3CC[C@@]21C`
Output line: inactive

Input line: Item: `OC(CCN1CCCCC1)(c1ccccc1)c1ccccc1`
Output line: inactive

Input line: Queued: `CCOC(=O)COc1ccc2c(C)c(CCN(CC)CC)c(=O)oc2c1Cl`
Output line: inactive

Input line: Record: `CC(C)n1nc(-c2cc3cc(O)ccc3[nH]2)c2c(N)ncnc21`
Output line: active

Input line: Do the same for CC(=O)CC(c1ccc([N+](=O)[O-])cc1)c1c(O)c2ccccc2oc1=O (stereo unspecified) please
Output line: inactive

Input line: Another molecule to check: `Cc1c(C)n(Cc2ccccc2)c2ccc(C(=O)OCCN(C)C)cc12`
Output line: inactive

Input line: Then what about the molecule `O=S1(=O)c2cccc3cccc(c23)N1CCCN1CCN(c2ccc(F)cc2)CC1` ?
Output line: inactive

Input line: Follow-up item: COC(=O)CCc1ccc(OCC(O)CNC(C)C)cc1 (stereo unspecified)
Output line: inactive

Input line: Here is the next molecule: `CC(=O)c1ccc2c(c1)N(CCCN1CCC(CCO)CC1)c1ccccc1S2`
Output line: inactive

Input line: Another molecule: `COc1cc(C=C2CCC/C(=C\c3ccc(O)c(OC)c3)C2=O)ccc1O`
Output line: active

Input line: Query `C=C1C(=C/C=C2\CCC[C@]3(C)[C@@H]([C@H](C)/C=C/[C@@H](O)C4CC4)CC[C@@H]23)C[C@@H](O)C[C@@H]1O` next
Output line: inactive

Input line: Now the molecule `CC(=O)Oc1ccc(C(=C2CCCCC2)c2ccc(OC(C)=O)cc2)cc1`
Output line: inactive

Input line: Then what about the molecule `O=C(COc1ccc(Cl)cc1)N1CCN(Cc2ccc3c(c2)OCO3)CC1` ?
Output line: inactive
